target: human NMB receptor (BB1) (Homo sapiens); construct: expressed in transfected cells; membranes prepared from the cells; experiment: BB1 binding assay ([125I][Tyr4]bombesin displacement, CHO-K1 membranes)
Sequence (P28336 whole entry): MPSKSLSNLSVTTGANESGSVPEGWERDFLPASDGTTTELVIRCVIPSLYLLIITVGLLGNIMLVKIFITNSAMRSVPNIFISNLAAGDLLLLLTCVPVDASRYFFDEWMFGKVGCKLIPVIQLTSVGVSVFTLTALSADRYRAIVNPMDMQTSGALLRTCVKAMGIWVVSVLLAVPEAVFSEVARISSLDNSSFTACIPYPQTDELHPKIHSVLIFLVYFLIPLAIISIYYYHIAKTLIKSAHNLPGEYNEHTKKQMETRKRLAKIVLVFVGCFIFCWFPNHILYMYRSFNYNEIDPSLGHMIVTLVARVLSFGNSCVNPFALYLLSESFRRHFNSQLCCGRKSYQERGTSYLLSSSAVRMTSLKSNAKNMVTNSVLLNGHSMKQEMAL
Give measured pIC50 for each item. Keep answers brief.
Just the number, please; pIC50 means minus log10 of the concentration in mol/L.

// returns reported pIC50 for input `C[C@@](Cc1c[nH]c2ccccc12)(NS(=O)(=O)c1ccccc1C(F)(F)F)C(=O)NCC1(c2ccccn2)CCCCC1`
6.87

// returns reported pIC50 for input `COc1cc(C)ccc1S(=O)(=O)N[C@@](C)(Cc1c[nH]c2ccccc12)C(=O)NCC1(c2ccccn2)CCCCC1`
6.35

// returns reported pIC50 for input `C[C@@](Cc1c[nH]c2ccccc12)(NS(=O)(=O)c1ccc(S(C)(=O)=O)cc1)C(=O)NCC1(c2ccccn2)CCCCC1`
5.98

// returns reported pIC50 for input `Cc1ccc(Oc2ccccc2)c(S(=O)(=O)N[C@@](C)(Cc2c[nH]c3ccccc23)C(=O)NCC2(c3ccccn3)CCCCC2)c1`
7.12

// returns reported pIC50 for input `C[C@@](Cc1c[nH]c2ccccc12)(NS(=O)(=O)c1cccc(F)c1)C(=O)NCC1(c2ccccn2)CCCCC1`
6.39

// returns reported pIC50 for input `C[C@@](Cc1c[nH]c2ccccc12)(NS(=O)(=O)c1ccc(Cl)cc1[N+](=O)[O-])C(=O)NCC1(c2ccccn2)CCCCC1`
6.29

// returns reported pIC50 for input `C[C@@](Cc1c[nH]c2ccccc12)(NS(=O)(=O)c1c(Cl)cc(Cl)cc1Cl)C(=O)NCC1(c2ccccn2)CCCCC1`
6.67

// returns reported pIC50 for input `C[C@@](Cc1c[nH]c2ccccc12)(NS(=O)(=O)c1ccc(C#N)cc1)C(=O)NCC1(c2ccccn2)CCCCC1`
6.12

// returns reported pIC50 for input `COC(=O)c1sccc1S(=O)(=O)N[C@@](C)(Cc1c[nH]c2ccccc12)C(=O)NCC1(c2ccccn2)CCCCC1`
6.78

// returns reported pIC50 for input `Cn1cnc(S(=O)(=O)N[C@@](C)(Cc2c[nH]c3ccccc23)C(=O)NCC2(c3ccccn3)CCCCC2)c1`
5.44

// returns reported pIC50 for input `C[C@@](Cc1c[nH]c2ccccc12)(NS(=O)(=O)c1ccc(Cl)c(C(F)(F)F)c1)C(=O)NCC1(c2ccccn2)CCCCC1`
6.20

// returns reported pIC50 for input `Cc1nc(S(=O)(=O)N[C@@](C)(Cc2c[nH]c3ccccc23)C(=O)NCC2(c3ccccn3)CCCCC2)cn1C`
5.61

// returns reported pIC50 for input `CC(C)(C)c1ccc(S(=O)(=O)N[C@@](C)(Cc2c[nH]c3ccccc23)C(=O)NCC2(c3ccccn3)CCCCC2)cc1`
6.39

* * *

target: human NMB receptor (BB1) (Homo sapiens); construct: expressed in transfected cells; membranes prepared from the cells; assay: BB1 binding assay ([125I][Tyr4]bombesin displacement, CHO-K1 membranes)
Give measured pIC50 for each item. Keep answers brief.
Just the number, please; pIC50 means minus log10 of the concentration in mol/L.

Request: pIC50, test system human NMB receptor (BB1) (Homo sapiens), entry `C[C@@](Cc1c[nH]c2ccccc12)(NS(=O)(=O)c1cccc2cccc([N+](=O)[O-])c12)C(=O)NCC1(c2ccccn2)CCCCC1`
6.75

Request: pIC50, test system human NMB receptor (BB1) (Homo sapiens), entry `COc1cccc(S(=O)(=O)N[C@@](C)(Cc2c[nH]c3ccccc23)C(=O)NCC2(c3ccccn3)CCCCC2)c1`
6.53

Request: pIC50, test system human NMB receptor (BB1) (Homo sapiens), entry `Cc1ccc(Oc2ccccc2S(=O)(=O)N[C@@](C)(Cc2c[nH]c3ccccc23)C(=O)NCC2(c3ccccn3)CCCCC2)cc1`
7.05

Request: pIC50, test system human NMB receptor (BB1) (Homo sapiens), entry `C[C@@](Cc1c[nH]c2ccccc12)(NS(=O)(=O)Cc1ccccc1)C(=O)NCC1(c2ccccn2)CCCCC1`
6.73
